Source listed as patent US12152048B2.

Test: Stability in rat plasma
Conditions: 37° C., 120 minutes
Each record here notes measured Percentage of the compound remaining in plasma.
MEASUREMENT_TYPE: Percentage of the compound remaining in plasma (%)

{"MOLECULE": "CC1CN(C(=O)OCOc2ccc([N+](=O)[O-])c3cccnc23)CCO1 (centres unmarked)", "VALUE": 89.0}
{"MOLECULE": "COC(=O)CN(C)C(=O)Oc1ccc([N+](=O)[O-])c2cccnc12", "VALUE": 0.0}
{"MOLECULE": "CCC(CC)C(=O)OCOc1ccc([N+](=O)[O-])c2cccnc12", "VALUE": 0.0}
{"MOLECULE": "CC(C)OC(=O)[C@H](C)NP(=O)(OCOc1ccc([N+](=O)[O-])c2cccnc12)Oc1ccccc1 (some centres unmarked)", "VALUE": 0.0}
{"MOLECULE": "CC(C)(C)C(=O)OCOc1ccc([N+](=O)[O-])c2cccnc12 [Compound 4, (5-nitroquinolin-8-yloxy)methyl pivalate]", "VALUE": 0.0}
{"MOLECULE": "COC(=O)[C@H](Cc1ccccc1)NC(=O)OCOc1ccc([N+](=O)[O-])c2cccnc12", "VALUE": 0.0}
{"MOLECULE": "O=[N+]([O-])c1ccc(O)c2ncccc12", "VALUE": 88.4}
{"MOLECULE": "O=C(OCOc1ccc([N+](=O)[O-])c2cccnc12)N1CCOCC1", "VALUE": 91.6}

----------
Assay: Stability in human liver microsome
Conditions: without coenzyme, 2 μM, 37° C., 30 minutes
// classify: if (Percentage of the compound remaining in human liver microsome < 0.8%) condition met else condition not met

{"COMPOUND": "CCC(C)C(NC(=O)OCOc1ccc([N+](=O)[O-])c2cccnc12)C(=O)OC (centres unmarked)", "LABEL": "condition not met"}
{"COMPOUND": "CC(C)C(=O)N1CCC[C@H]1C(=O)OCOc1ccc([N+](=O)[O-])c2cccnc12", "LABEL": "condition not met"}
{"COMPOUND": "CCC(=O)OC(C)Oc1ccc([N+](=O)[O-])c2cccnc12 (centres unmarked)", "LABEL": "condition met"}
{"COMPOUND": "CN1CCN(C(=O)OCOc2ccc([N+](=O)[O-])c3cccnc23)CC1", "LABEL": "condition not met"}
{"COMPOUND": "CC(=O)OCOc1ccc([N+](=O)[O-])c2cccnc12 [Compound 1, (5-nitroquinolin-8-yloxy)methyl acetate]", "LABEL": "condition met"}
{"COMPOUND": "COC(=O)CNC(=O)OCOc1ccc([N+](=O)[O-])c2cccnc12", "LABEL": "condition not met"}
{"COMPOUND": "CC(C)OC(=O)[C@H](C)NP(=O)(OCOc1ccc([N+](=O)[O-])c2cccnc12)Oc1ccccc1 (some centres unmarked)", "LABEL": "condition not met"}
{"COMPOUND": "COC(=O)CCCCC(=O)OCOc1ccc([N+](=O)[O-])c2cccnc12", "LABEL": "condition met"}
{"COMPOUND": "CCC(C)C(C(=O)OC)N(C)C(=O)OCOc1ccc([N+](=O)[O-])c2cccnc12 (centres unmarked)", "LABEL": "condition not met"}
{"COMPOUND": "CCCOC(=O)N1CCC[C@H]1C(=O)OCOc1ccc([N+](=O)[O-])c2cccnc12", "LABEL": "condition not met"}
{"COMPOUND": "CC(OC(=O)C(C)C)Oc1ccc([N+](=O)[O-])c2cccnc12 (centres unmarked)", "LABEL": "condition met"}

----------
Assay: Stability in monkey plasma
Type: in vitro ADME
Conditions: 37° C., 60 minutes
MEASUREMENT_TYPE: Percentage of the compound remaining in plasma (%)

{"COMPOUND": "CC(C)(C)C(=O)OCOc1ccc([N+](=O)[O-])c2cccnc12 [Compound 4, (5-nitroquinolin-8-yloxy)methyl pivalate]", "UNIT_SYMBOL": "%", "VALUE": 0.0}
{"COMPOUND": "O=[N+]([O-])c1ccc(O)c2ncccc12 [Nitroxoline]", "UNIT_SYMBOL": "%", "VALUE": 101.8}
{"COMPOUND": "CCC(CC)C(=O)OCOc1ccc([N+](=O)[O-])c2cccnc12 [Compound 5]", "UNIT_SYMBOL": "%", "VALUE": 0.0}
{"COMPOUND": "O=C(OCOc1ccc([N+](=O)[O-])c2cccnc12)N1CCOCC1 [Compound 7]", "UNIT_SYMBOL": "%", "VALUE": 99.0}
{"COMPOUND": "CCC(CC)C(=O)OC(C)Oc1ccc([N+](=O)[O-])c2cccnc12 (stereo not drawn) [Compound 51]", "UNIT_SYMBOL": "%", "VALUE": 78.1}
{"COMPOUND": "CN1CCN(C(=O)OCOc2ccc([N+](=O)[O-])c3cccnc23)CC1 [Compound 6]", "UNIT_SYMBOL": "%", "VALUE": 91.6}

----------
Test: Stability in rat liver microsome
Settings: without coenzyme, 2 μM, 37° C., 30 minutes
MEASUREMENT_TYPE: Percentage of the compound remaining in rat liver microsome (%)

{"COMPOUND": "O=C(CCCCC(=O)OCOc1ccc([N+](=O)[O-])c2cccnc12)OCOc1ccc([N+](=O)[O-])c2cccnc12", "VALUE": 0.05}
{"COMPOUND": "CCCOC(=O)N1CCC[C@H]1C(=O)OCOc1ccc([N+](=O)[O-])c2cccnc12", "VALUE": 4.63}
{"COMPOUND": "CC(C)OC(=O)[C@H](C)NP(=O)(OCOc1ccc([N+](=O)[O-])c2cccnc12)Oc1ccccc1 (stereo partly drawn)", "VALUE": 0.02}

----------
Assay: Stability in dog liver microsome
Conditions: without coenzyme, 2 μM, 37° C., 30 minutes
MEASUREMENT_TYPE: Percentage of the compound remaining in dog liver microsome (%)

{"MOLECULE": "CC(OC(=O)C(C)C)Oc1ccc([N+](=O)[O-])c2cccnc12 (stereo not shown)", "VALUE": 0.01}
{"MOLECULE": "CCC(C)C(C(=O)OC)N(C)C(=O)OCOc1ccc([N+](=O)[O-])c2cccnc12 (stereo not shown)", "VALUE": 118.35}
{"MOLECULE": "CN(C)C(=O)Oc1ccc([N+](=O)[O-])c2cccnc12 [Compound 78, 5-nitroquinolin-8-yl dimethylcarbamate]", "VALUE": 98.41}
{"MOLECULE": "CCC(=O)OC(C)Oc1ccc([N+](=O)[O-])c2cccnc12 (stereo not shown)", "VALUE": 0.02}

----------
Each record here notes measured Percentage of the compound remaining in plasma.
Assay: Stability in rat plasma
Conditions: 37° C., 60 minutes
MEASUREMENT_TYPE: Percentage of the compound remaining in plasma (%)

{"MOLECULE": "O=C(OCOc1ccc([N+](=O)[O-])c2cccnc12)N1CCOCC1", "UNIT_SYMBOL": "%", "VALUE": 95.0}
{"MOLECULE": "CCC(NC(=O)OCOc1ccc([N+](=O)[O-])c2cccnc12)C(=O)OC (stereo not shown)", "UNIT_SYMBOL": "%", "VALUE": 0.0}
{"MOLECULE": "CN1CCN(C(=O)OCOc2ccc([N+](=O)[O-])c3cccnc23)CC1", "UNIT_SYMBOL": "%", "VALUE": 90.2}
{"MOLECULE": "COC(=O)[C@H](Cc1ccccc1)NC(=O)OCOc1ccc([N+](=O)[O-])c2cccnc12", "UNIT_SYMBOL": "%", "VALUE": 0.0}
{"MOLECULE": "CC1CN(C(=O)OCOc2ccc([N+](=O)[O-])c3cccnc23)CCO1 (stereo not shown)", "UNIT_SYMBOL": "%", "VALUE": 95.8}
{"MOLECULE": "CC(C)(C)OP(=O)(OCOc1ccc([N+](=O)[O-])c2cccnc12)OC(C)(C)C", "UNIT_SYMBOL": "%", "VALUE": 84.1}
{"MOLECULE": "CCC(C)C(C(=O)OC)N(C)C(=O)OCOc1ccc([N+](=O)[O-])c2cccnc12 (stereo not shown)", "UNIT_SYMBOL": "%", "VALUE": 0.0}
{"MOLECULE": "CN(CC(O)CO)C(=O)OCOc1ccc([N+](=O)[O-])c2cccnc12 (stereo not shown)", "UNIT_SYMBOL": "%", "VALUE": 84.6}
{"MOLECULE": "CCC(C)C(NC(=O)OCOc1ccc([N+](=O)[O-])c2cccnc12)C(=O)OC (stereo not shown)", "UNIT_SYMBOL": "%", "VALUE": 5.0}
{"MOLECULE": "COC(=O)CN(C)C(=O)Oc1ccc([N+](=O)[O-])c2cccnc12", "UNIT_SYMBOL": "%", "VALUE": 0.0}
{"MOLECULE": "CC(C)(C)C(=O)OCOc1ccc([N+](=O)[O-])c2cccnc12 [Compound 4, (5-nitroquinolin-8-yloxy)methyl pivalate]", "UNIT_SYMBOL": "%", "VALUE": 0.0}
{"MOLECULE": "O=[N+]([O-])c1ccc(O)c2ncccc12", "UNIT_SYMBOL": "%", "VALUE": 95.3}
{"MOLECULE": "CCC(CC)C(=O)OC(C)Oc1ccc([N+](=O)[O-])c2cccnc12 (stereo not shown)", "UNIT_SYMBOL": "%", "VALUE": 48.0}
{"MOLECULE": "CC(C)OC(=O)[C@H](C)NP(=O)(OCOc1ccc([N+](=O)[O-])c2cccnc12)Oc1ccccc1 (stereo partly shown)", "UNIT_SYMBOL": "%", "VALUE": 0.0}
{"MOLECULE": "CCC(CC)C(=O)OCOc1ccc([N+](=O)[O-])c2cccnc12", "UNIT_SYMBOL": "%", "VALUE": 0.0}
{"MOLECULE": "C[C@@H]1CN(C(=O)OCOc2ccc([N+](=O)[O-])c3cccnc23)C[C@H](C)O1", "UNIT_SYMBOL": "%", "VALUE": 92.4}
